Origin of values: PubChem BioAssay AID1159580

# experimental.details: chemical genetic growth profiling, strain panel (AID 1159580);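 also: tested at 20 µM; growth read once vehicle control cultures reached saturation at 30 °C; 1 = growth at the plate median or of vehicle wells; lower values mean less growth of the strain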
# experimental.parameters: S. cerevisiae deletion strains, growth OD, locus YOR265W, strain rbl2, active compounds read low
In all, about 5,500 compounds went through this assay and about 2,000 (36%) were called active. Not shown: some 18% with an inconclusive outcome. This is one part of the list.
measured.quantity: normalized growth
# print the numeric value only

* C[C@@H]1CC2C3CCC4=CC(=O)C=C[C@]4(C)[C@@]3(F)[C@@H](O)C[C@]2(C)[C@@]1(O)C(=O)CO (some centres undefined) | 0.986
* c1ccc2c(CC3=NCCN3)cccc2c1 | 0.987
* O=C(O)CCC1NCC2CC1CN1CCCCC21 (centres undefined) | 0.977
* CC(=O)Oc1c2c(c(CC=C(C)C)c3c1C(=O)C1=C[C@@H]4CC5C(C)(C)OC(C/C=C(\C)C(=O)O)(C4=O)[C@@]15O3)OC(C)(CCC=C(C)C)C=C2 (some centres undefined) | 0.962
* COC(=O)/C(C)=C\CC12OC(C)(C)C3CC(C=C4C(=O)c5c(OC)c6c(c(CC=C(C)C)c5OC431)OC(C)(CCC=C(C)C)C=C6)C2=O (centres undefined) | 1.01

So for CCC(=O)OC1[C@@H]2CC3=C4CC(=O)O[C@@H](c5ccoc5)[C@]4(C)CCC3[C@@](C)(C2=O)[C@@H](CC(=O)OC)C1(C)C (some centres undefined) , the logged normalized growth turned out to be 0.994

So for COc1cc(C)c2c(=O)cc(-c3ccccc3)oc2c1 , the logged normalized growth turned out to be 0.922

So for CC(=O)Oc1c2c(c3c(c1CC=C(C)C)O[C@]14C(=C[C@@H]5CC1C(C)(C)OC4(C/C=C(\C)C(=O)O)C5=O)C3=O)OC(C)(CCC=C(C)C)C=C2 (some centres undefined) , the logged normalized growth turned out to be 0.979

So for O=C(O)COc1ccc(Cl)cc1Cl , the logged normalized growth turned out to be 0.992

----------
# experimental.details: chemical genetic growth profiling, strain panel (AID 1159580);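 also: tested at 20 µM; growth read once vehicle control cultures reached saturation at 30 °C; 1 = growth at the plate median or of vehicle wells; lower values mean less growth of the strain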
# experimental.parameters: S. cerevisiae deletion strains, growth OD, locus YNL067W, strain RPL9B, active compounds read low
Screen size: about 5,500 compounds; about 2,000 (36%) were called active. Not shown: some 18% with an inconclusive outcome. This is one part of the list.
measured.quantity: normalized growth
# print the numeric value only

Solved cases (5 shown):
• NCCCCC(=O)O = 1.04
• OC[C@H]1O[C@@H](n2cnc3c(NCc4ccco4)ncnc32)[C@H](O)[C@@H]1O = 1.04
• COP(=S)(OC)Oc1ccc([N+](=O)[O-])cc1 = 0.984
• NCCCCCC(=O)O = 0.977
• CC(=O)C1CCC2C3CCC4C[C@H](O)CCC4(C)C3C[C@H](O)C12C (stereo not given in full) = 1.02

Now for another entry.
So for C[C@]12CCC3C(CC[C@H]4C[C@@H](O)CC[C@]34C)C1CC[C@@H]2O (stereo not given in full) , the logged normalized growth turned out to be 0.938

----------
# experimental.details: chemical genetic growth profiling, strain panel (AID 1159580);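 also: tested at 20 µM; growth read once vehicle control cultures reached saturation at 30 °C; 1 = growth at the plate median or of vehicle wells; lower values mean less growth of the strain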
# experimental.parameters: S. cerevisiae deletion strains, growth OD, locus YLR342W, strain FKS1, active compounds read low
Screen size: about 5,500 compounds; about 2,000 (36%) were called active. About 18% were inconclusive and are not listed. The list shows a part of the results.
Catalogue of normalized growth values
# print the numeric value only

Solved cases (5 shown):
• NC(N)=NCCCCN=C(N)N = 0.993
• COC(=O)[C@H](c1ccccc1Cl)N1CCc2sccc2C1 = 0.982
• Clc1ccccc1CN1CCc2sccc2C1 = 1.01
• C[C@@H]1CC2C3CCC4=CC(=O)C=C[C@]4(C)[C@@]3(F)[C@@H](O)C[C@]2(C)[C@@]1(O)C(=O)CO (some centres not stated) = 0.951
• C=NC(C(=O)NC1C(=O)N2C1SC(C)(C)C2C(=O)O)c1ccccc1 (configuration not stated) = 1.02

Now for another entry.
So for COc1ccc2c(c1)OCC(Cc1ccc(OC)c(OC)c1)C2=O (configuration not stated) , the logged normalized growth turned out to be 0.951
